experiment: Pharmacokinetic experiments on rats (plasma level, AUC, half-life, bioavailability); format: in vivo; settings: rat, in vivo
measuredAttribute: half-life

Qu. Dear colleague, I am looking for the recorded half-life of the following compound: CC(=O)Nc1ccc(C(=O)Nc2ccccc2N)cc1 [Compound A, 4-Acetamino-N-(2'-aminophenyl)-benzamide]
Ans. 252 to 270 min

====

experiment: Pharmacokinetic experiments on rats (plasma level, AUC, half-life, bioavailability); assay type: in vivo; conditions: rat, in vivo, po, 10 mg/kg
measuredAttribute: half-life

Qu. Dear colleague, I am looking for the recorded half-life of the following compound: Nc1ccc(C(=O)Nc2ccccc2N)cc1 [Compound B, 4-Amino-N-(2'-aminophenyl)-benzamide, reference compound]
Ans. ~15 min
